test system: A/WSN/33; assay type: cell-based
value-kind: EC50 (nM)

{"molecule": "Cc1cc(Br)cnc1N1CCN(C(=O)c2c(-c3ccccc3Cl)noc2C)CC1 [Compound D]", "value-kind": "EC50", "obs-value": 1020}
